These data points were gathered from patent US20230391752A1.

Entries annotated with measured clearance
Experiment: Pharmacokinetic study in dogs
Format: in vivo, male Beagle dogs
Settings: male, Beagle, plasma; dog, IV 0.2 to 0.5 mg/kg; read-out: CL (mL/min/kg) Dog
ENDPOINT LABEL: clearance (mL/min/kg)

INSERT INTO measurements (line_notation, quantitative_result) VALUES
  ('Cc1ncnc(C)c1-c1ccc(C(=O)N2CC[C@H](C(=O)Nc3cc(F)c(F)c(F)c3)C2)[nH]1', 4.4),
  ('Cc1ncnc(C)c1-c1ccc(C(=O)N2CC[C@H](C(=O)Nc3ccc(F)c(Cl)c3)[C@@H]2C)[nH]1', 1.5),
  ('Cc1cc(NC(=O)[C@H]2CCN(C(=O)c3ccc(-c4c(C)ncnc4C)[nH]3)[C@H]2C)ccc1F', 5.1);

====

Tested on: HBV
Test: In vitro anti-HBV activity in HepG2.2.15 cell line (intracellular HBV DNA by qPCR at 1 μM)
Assay type: cell-based
Conditions: Hepatitis B virus, 144 h; HepG2.2.15 cells, 1 μM compound, 6 days, intracellular HBV DNA as percentage compared to vehicle control (0.5% DMSO)
Entries annotated with measured activity at 1 µM
ENDPOINT LABEL: activity at 1 µM

INSERT INTO results (line_notation, endpoint_label, result) VALUES
  ('C[C@H]1[C@@H](C(=O)Nc2cc(F)c(F)c(F)c2)CCN1C(=O)c1ccc(C#N)[nH]1', 'activity at 1 µM', '< 45%'),
  ('O=C(Nc1cc(F)c(F)c(F)c1)[C@H]1CCN(C(=O)c2cc3cnccc3[nH]2)C1', 'activity at 1 µM', '60 to 70%'),
  ('O=C(Nc1cc(F)c(F)c(F)c1)[C@H]1CCN(C(=O)c2nc3ccccc3[nH]2)C1', 'activity at 1 µM', '60 to 70%'),
  ('O=C(Nc1cc(F)c(F)c(F)c1)[C@H]1CCN(C(=O)c2cc3nccnc3[nH]2)C1', 'activity at 1 µM', '70 to 80%'),
  ('Cc1ncnc(C)c1-c1ccc(C(=O)N2CC[C@H](C(=O)Nc3ccc(F)c(C#N)c3)C2)[nH]1', 'activity at 1 µM', '60 to 70%'),
  ('N#Cc1c(C(=O)N2CC[C@H](C(=O)Nc3cc(F)c(F)c(F)c3)C2)[nH]c2ccccc12', 'activity at 1 µM', '60 to 70%'),
  ('Cc1cc(NC(=O)[C@H]2CCN(C(=O)c3ccc(-c4c(C(F)(F)F)n[nH]c4C)[nH]3)C2)ccc1F', 'activity at 1 µM', '< 45%'),
  ('Cc1cc(NC(=O)[C@H]2CCN(C(=O)c3ccc(-c4c(C)nn(CC(=O)O)c4C)[nH]3)[C@H]2C)ccc1F', 'activity at 1 µM', '45 to 60%'),
  ('Cc1ncnc(C)c1-c1ccc2c(Cl)c(C(=O)N3CC[C@H](C(=O)Nc4ccc(F)c(C#N)c4)C3)[nH]c2c1', 'activity at 1 µM', '< 45%'),
  ('Cc1nn(C)c(C)c1-c1ccc(C(=O)N2CC[C@H](C(=O)Nc3cc(F)c(F)c(F)c3)C2)[nH]1', 'activity at 1 µM', '< 45%'),
  ('C[C@H]1[C@@H](C(=O)Nc2ccc(F)c(C#N)c2)CCN1C(=O)c1ccc(C2CC2)[nH]1', 'activity at 1 µM', '< 45%'),
  ('Cc1n[nH]cc1C(=O)N1CC[C@H](C(=O)Nc2cc(F)c(F)c(F)c2)C1', 'activity at 1 µM', '> 90%'),
  ('O=C(Nc1cc(F)c(F)c(F)c1)[C@H]1CCN(C(=O)c2cc3sccc3[nH]2)C1', 'activity at 1 µM', '60 to 70%'),
  ('Cc1ncnc(C)c1-c1ccc(C(=O)N2CC[C@H](C(=O)Nc3cc(F)c(F)c(Cl)c3)C2)[nH]1', 'activity at 1 µM', '< 45%'),
  ('Cc1nccnc1-c1ccc2c(Cl)c(C(=O)N3CC[C@H](C(=O)Nc4ccc(F)c(C#N)c4)C3)[nH]c2c1', 'activity at 1 µM', '< 45%');

====

Test system: HBV
Assay: In vitro anti-HBV activity in HepG2.2.15 cell line (intracellular HBV DNA by qPCR at 1 μM)
Assay type: cell-based
Conditions: Hepatitis B virus, 144 h; HepG2.2.15 cells, 1 μM compound, 6 days, intracellular HBV DNA as percentage compared to vehicle control (0.5% DMSO)
Description: The stable transfected HBV cell line, called HepG2.2.15 cells was a valuable model with high reproducibility and commonly used for drug screening. […]
ENDPOINT LABEL: activity at 1 µM

INSERT INTO assay_data (molecule, result) VALUES
  ('Cc1ccc(C(=O)N2CC[C@H](C(=O)Nc3cc(F)c(F)c(Br)c3)C2)[nH]1 [Example 51]', '45 to 60%'),
  ('O=C(Nc1cc(F)c(F)c(F)c1)[C@H]1CCN(C(=O)c2cc3occc3[nH]2)C1 [Example 9]', '80 to 90%'),
  ('Cc1nn(C)cc1Cc1ccc(C(=O)N2CC[C@H](C(=O)Nc3cc(F)c(F)c(F)c3)C2)[nH]1 [Example 146]', '70 to 80%'),
  ('O=C(Nc1cc(F)c(F)c(F)c1)[C@H]1CCN(C(=O)c2ccc3cc[nH]c3c2)C1 [Example 35]', '70 to 80%'),
  ('Cc1n[nH]c(C)c1-c1ccc(C(=O)N2CC[C@H](C(=O)Nc3cc(F)c(F)c(F)c3)C2)[nH]1 [Example 87]', '< 45%'),
  ('Cc1ncncc1-c1ccc(C(=O)N2CC[C@H](C(=O)Nc3cc(F)c(F)c(F)c3)C2)[nH]1 [Example 89]', '< 45%'),
  ('Cc1ccc(C(=O)N2CC[C@H](C(=O)Nc3ccc(F)c(C#N)c3)[C@@H]2C)[nH]1 [Example 66]', '45 to 60%'),
  ('CC(C)c1ccc(C(=O)N2CC[C@H](C(=O)Nc3cc(F)c(F)c(F)c3)C2)[nH]1 [Example 61]', '60 to 70%');

====

System: HBV
Experiment: In vitro anti-HBV activity in HepG2.2.15 cell line (intracellular HBV DNA by qPCR at 1 μM)
Format: cell-based
Conditions: Hepatitis B virus, 144 h; HepG2.2.15 cells, 1 μM compound, 6 days, intracellular HBV DNA as percentage compared to vehicle control (0.5% DMSO)
Entries annotated with measured activity at 1 µM
ENDPOINT LABEL: activity at 1 µM

INSERT INTO results (line_notation, result) VALUES
  ('Cc1nccnc1-c1ccc(C(=O)N2CC[C@H](C(=O)Nc3cc(F)c(F)c(F)c3)C2)[nH]1', '45 to 60%'),
  ('Cc1c(-c2ccc(C(=O)N3CC[C@H](C(=O)Nc4cc(F)c(F)c(F)c4)C3)[nH]2)c2ncccc2n1C', '> 90%'),
  ('C[C@H]1[C@@H](C(=O)Nc2cc(F)c(F)c(F)c2)CCN1C(=O)c1ccc(-c2ccnnc2)[nH]1', '< 45%'),
  ('Cc1ccc(C(=O)N2CC[C@H](C(=O)Nc3cc(F)c(F)c(Cl)c3)[C@@H]2C)[nH]1', '< 45%'),
  ('O=Cc1c[nH]c2cc(C(=O)N3CC[C@H](C(=O)Nc4cc(F)c(F)c(F)c4)C3)ccc12', '70 to 80%'),
  ('N#Cc1cc(NC(=O)[C@H]2CCN(C(=O)c3ccc(-c4ccncc4)[nH]3)C2)ccc1F', '70 to 80%'),
  ('Cc1cc(NC(=O)[C@H]2CCN(C(=O)c3ccc(-c4c(C)nn(CCO)c4C)[nH]3)[C@H]2C)ccc1F', '< 45%'),
  ('O=C(Nc1cc(F)c(F)c(F)c1)[C@H]1CCN(C(=O)c2ccc3c(CNCCO)c[nH]c3c2)C1', '> 90%'),
  ('Cc1ncnc(C)c1-c1ccc(C(=O)N2CC[C@H](C(=O)Nc3ccc(F)c(Cl)c3)C2)[nH]1', '< 45%'),
  ('Cc1ncnc(C)c1-c1ccc2cc(C(=O)N3CC[C@H](C(=O)Nc4cc(F)c(F)c(F)c4)C3)[nH]c2c1', '45 to 60%'),
  ('O=C(Nc1cc(F)c(F)c(F)c1)[C@H]1CCN(C(=O)c2ccc(-c3ccncc3)[nH]2)C1', '< 45%'),
  ('Cc1ncccc1-c1ccc(C(=O)N2CC[C@H](C(=O)Nc3cc(F)c(F)c(F)c3)C2)[nH]1', '< 45%'),
  ('O=C(Nc1cc(F)c(F)c(Br)c1)[C@H]1CCN(C(=O)c2cc3cnccc3[nH]2)C1', '70 to 80%'),
  ('Cc1ncc(-c2ccc(C(=O)N3CC[C@H](C(=O)Nc4ccc(F)c(Cl)c4)[C@@H]3C)[nH]2)cn1', '< 45%'),
  ('Cc1cn[nH]c(=O)c1-c1ccc(C(=O)N2CC[C@H](C(=O)Nc3cc(F)c(F)c(F)c3)C2)[nH]1', '45 to 60%');
